System: Mus musculus
Procedure details: Nephrotoxicity in ICR mouse assessed as tubular dilation at 2.5 mg/kg, iv bid for 7 days measured after 2 hrs post last dose by hematoxylin and eosin staining based assay
Type: toxicity, organism-based
Experimental context: in vivo
Bridge positions count the residues as written; N and C are the ends. Square brackets hold non-standard residues; d marks the D form. Peptide text beside a SMILES is read from it. * marks the point of attachment. Heptanoyl(6-Me) = CC(C)CCCCC(=O)*; Dab = NCC[C@H](N)C(=O)O
Property: Activity

Examples with answers:
| Molecule | Activity |
| --- | --- |
| CC(C)CCCCC(=O)N[C@@H](CCN)C(=O)N[C@H](C(=O)N[C@H](CO)C(=O)N[C@H]1CCNC(=O)[C@H]([C@@H](C)O)NC(=O)[C@H](CCN)NC(=O)[C@H](CCN)NC(=O)[C@H]([C@@H](C)O)NC(=O)[C@@H](CC(C)C)NC(=O)[C@H](CCN)NC1=O)[C@@H](C)O ({Heptanoyl(6-Me)}-[Dab]T[dS][Dab][Dab][dL]T[Dab][Dab]T; lactam 4-C) | Toxic |
| CC(C)CCCCC(=O)N[C@@H](CCN)C(=O)N[C@H](C(=O)N[C@H](CO)C(=O)N[C@H]1CCNC(=O)[C@H]([C@@H](C)O)NC(=O)[C@H](CCN)NC(=O)[C@H](CCN)NC(=O)[C@H]([C@@H](C)O)NC(=O)[C@@H](Cc2ccccc2)NC(=O)[C@H](CCN)NC1=O)[C@@H](C)O ({Heptanoyl(6-Me)}-[Dab]T[dS][Dab][Dab][dF]T[Dab][Dab]T; lactam 4-C) | Non-Toxic |
| CC(C)CCCCC(=O)N[C@@H](CCN)C(=O)N[C@H](C(=O)N[C@@H](CCN)C(=O)N[C@H]1CCNC(=O)[C@H]([C@@H](C)O)NC(=O)[C@H](CCN)NC(=O)[C@H](CCN)NC(=O)[C@H](CC(C)C)NC(=O)[C@@H](Cc2ccccc2)NC(=O)[C@H](CCN)NC1=O)[C@@H](C)O [POLYMYXIN B2] ({Heptanoyl(6-Me)}-[Dab]T[Dab][Dab][Dab][dF]L[Dab][Dab]T; lactam 4-C) | Toxic |
| CC(C)CCCCC(=O)N[C@@H](CCN)C(=O)N[C@H](C(=O)N[C@@H](CCN)C(=O)N[C@H]1CCNC(=O)[C@H]([C@@H](C)O)NC(=O)[C@H](CCN)NC(=O)[C@H](CCN)NC(=O)[C@H]([C@@H](C)O)NC(=O)[C@@H](CC(C)C)NC(=O)[C@H](CCN)NC1=O)[C@@H](C)O | Non-Toxic |

Now for the molecule whose Activity we want.
Entry CC(C)CCCCC(=O)N[C@@H](CCN)C(=O)N[C@H](C(=O)N[C@@H](CCN)C(=O)N[C@H]1CCNC(=O)[C@H]([C@@H](C)O)NC(=O)[C@H](CCN)NC(=O)[C@H](CCN)NC(=O)[C@H](CC(C)C)NC(=O)[C@@H](CC(C)C)NC(=O)[C@H](CCN)NC1=O)[C@@H](C)O [COLISTIN B] ({Heptanoyl(6-Me)}-[Dab]T[Dab][Dab][Dab][dL]L[Dab][Dab]T; lactam 4-C) : reported Activity = ?
Non-Toxic
